- experimental system: TDP-43 (Homo sapiens, UniProt Q13148 1-414)
- Sequence (Q13148 whole entry): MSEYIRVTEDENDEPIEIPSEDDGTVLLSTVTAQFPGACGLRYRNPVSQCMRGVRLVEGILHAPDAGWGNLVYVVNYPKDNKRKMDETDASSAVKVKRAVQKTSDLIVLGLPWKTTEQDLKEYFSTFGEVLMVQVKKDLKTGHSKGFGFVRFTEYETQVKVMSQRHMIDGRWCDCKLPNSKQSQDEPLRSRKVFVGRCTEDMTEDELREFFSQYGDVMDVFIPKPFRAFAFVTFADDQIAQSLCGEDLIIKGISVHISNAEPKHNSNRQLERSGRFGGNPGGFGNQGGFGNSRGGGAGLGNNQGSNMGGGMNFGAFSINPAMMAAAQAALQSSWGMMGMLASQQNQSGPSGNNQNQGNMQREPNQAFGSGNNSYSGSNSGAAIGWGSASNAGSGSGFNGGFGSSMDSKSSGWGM
- experimental details: RNA Bind-n-Seq with designed 260-mer pool; 25 mM Tris-HCl, 150 mM KCl, 3 mM MgCl2, BSA (printed 500 mg/mL), 20 units/mL SUPERase IN; pH not stated; 500 nM RNA pool, 1 h, 4 C; TDP-43 5, 50, 500 nM; high values mean tight binding
- condition parameters: protein: recombinant; tags: SBP (GST cleaved off with PreScission; pGEX-GST-SBP)
Over roughly 9,900 sequences, “r (bound/input frequency ratio)” has its median near 0.7; the highest 2% begin near 6.5. For the sample, the highest values were picked, then their nearest neighbours and some sequences at random.

binder	binding signal
ENSMUSG00000043670.209|Diras1 (ssRNA) RNA: GGGAGUUCUACAGUCCGACGAUCGCUUCGAUAUCCGCAUGCUAUUCUGUGUUUAUGUGCCUGUGUGUGUGGAUGGGUGUGUGUCUGUCUUGGGAUGGGGUGUUCUUGCACCACUUUGUGUUCUUAGUGAGACCACAGUGUAAGUGGCCGUGUGUGUGUGUGGGGGGGGGCACCUAGACAUUGUGGUGUGUCUGUAUGGCUCUGUGUUUUCAGGGGUGGGUGACACAGGCCUGUCUGAUGAGCACCAGGUCUGUUCCAGGCUGUGGCAAGCUGGCUCCUGGCUCAGAAGUGACAAAGCUGCAGUCUCUUGCGGUCGCACUAGUGUGGAAUUCUCGGGUGUCAAGG	5.23 R (bound/input frequency ratio)
ENSMUSG00000043670.210|Diras1 (ssRNA) RNA: GGGAGUUCUACAGUCCGACGAUCGCUUCGAUAUCCGCAUGCUAGUUUAUGUGCCUGUGUGUGUGGAUGGGUGUGUGUCUGUCUUGGGAUGGGGUGUUCUUGCACCACUUUGUGUUCUUAGUGAGACCACAGUGUAAGUGGCCGUGUGUGUGUGUGGGGGGGGGCACCUAGACAUUGUGGUGUGUCUGUAUGGCUCUGUGUUUUCAGGGGUGGGUGACACAGGCCUGUCUGAUGAGCACCAGGUCUGUUCCAGGCUGUGGCAAGCUGGCUCCUGGCUCAGAAGUGACAAAGCUGCAGUACAGAGCUCUUGCGGUCGCACUAGUGUGGAAUUCUCGGGUGUCAAGG	5.7 R (bound/input frequency ratio)
